# measurementProtocol: Toxicity test (acute, oral)
# settings: mouse, in vivo, ddY mice, male
# Method: The active component was orally administered to ddY mice (mean body weight of 35 g, male). No example of death was noted up to the dose of 5,000 mg/kg. Accordingly, the acute toxicity of Compound B is greater than 5,000 mg/kg. (Effects)
property: LD50

Request: Given CCOC(=O)C(C)(C)CCCCOc1ccc(OCCCCCn2ccnc2)cc1 [Compound B] , state its recorded LD50.
Result: > 5000 mg/kg
